Target: human ROR1 (Homo sapiens, UniProt Q01973)
Construct: host or cells: HEK 293T cells, Tet-on system induced with doxycycline
Sequence (Q01973 30-937): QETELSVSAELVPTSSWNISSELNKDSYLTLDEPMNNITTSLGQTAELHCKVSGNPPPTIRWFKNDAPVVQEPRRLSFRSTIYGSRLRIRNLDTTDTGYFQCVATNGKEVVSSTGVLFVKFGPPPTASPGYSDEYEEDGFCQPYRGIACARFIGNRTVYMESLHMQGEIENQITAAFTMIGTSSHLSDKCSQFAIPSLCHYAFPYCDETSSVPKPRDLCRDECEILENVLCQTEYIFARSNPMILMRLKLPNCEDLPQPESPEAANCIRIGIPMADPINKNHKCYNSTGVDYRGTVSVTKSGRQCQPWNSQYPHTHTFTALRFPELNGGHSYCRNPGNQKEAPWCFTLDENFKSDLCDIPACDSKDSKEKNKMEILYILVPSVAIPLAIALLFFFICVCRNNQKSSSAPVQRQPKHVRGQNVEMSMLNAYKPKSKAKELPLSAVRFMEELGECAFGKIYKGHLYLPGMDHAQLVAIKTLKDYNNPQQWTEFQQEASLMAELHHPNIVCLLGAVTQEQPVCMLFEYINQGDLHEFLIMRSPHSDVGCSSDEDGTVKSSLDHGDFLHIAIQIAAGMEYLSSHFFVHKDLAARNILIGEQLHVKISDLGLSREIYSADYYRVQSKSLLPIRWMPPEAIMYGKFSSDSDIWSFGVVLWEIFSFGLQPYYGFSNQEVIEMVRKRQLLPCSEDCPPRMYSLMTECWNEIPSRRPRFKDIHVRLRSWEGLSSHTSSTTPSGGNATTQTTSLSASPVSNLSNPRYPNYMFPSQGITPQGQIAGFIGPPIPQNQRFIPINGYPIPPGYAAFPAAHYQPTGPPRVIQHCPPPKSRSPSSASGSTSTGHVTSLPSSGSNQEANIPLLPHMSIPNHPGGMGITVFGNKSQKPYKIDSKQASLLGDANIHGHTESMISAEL
Test: ROR1 high content cell-based binding assay
Settings: read-out: ROR1 Binding 293T Human HC Cell Based Assay IC50
Positions of bridges follow the written chain, without caps; N, C: chain ends. Non-standard residues stand in square brackets, D forms with d. Residues, ends and D or L forms follow the SMILES beside them. NMeY = CN[C@@H](Cc1ccc(O)cc1)C(=O)O; NMeF = CN[C@@H](Cc1ccccc1)C(=O)O
property: IC50 (nM)
A number alone suffices; assume nM.

Per the records, this molecule ( CC(C)C[C@@H]1NC(=O)[C@H](C)NC(=O)[C@H](Cc2ccccc2)NC(=O)CSC[C@@H](C(=O)NCC(N)=O)NC(=O)[C@H](CC(C)C)NC(=O)[C@H](Cc2ccccc2)N(C)C(=O)[C@H](Cc2ccc(O)cc2)NC(=O)[C@H](Cc2c[nH]c3ccccc23)NC(=O)CNC(=O)[C@H](CO)NC(=O)[C@H](Cc2ccc(O)cc2)NC(=O)[C@H](C(C)C)NC1=O [Example 1038] ({CH2CO}-FALVYSGWY[NMeF]LCG-NH2; thioether N-12) ) has IC50 equal to 23

New cases:
Per the records, this molecule ( CC(C)C[C@@H]1NC(=O)[C@H](CC(N)=O)NC(=O)[C@H](Cc2ccc(O)cc2)N(C)C(=O)CNC(=O)[C@H](Cc2ccc(O)cc2)NC(=O)[C@H](Cc2ccccc2)NC(=O)CSC[C@@H](C(N)=O)NC(=O)[C@H](Cc2c[nH]c3ccccc23)NC(=O)[C@H](Cc2ccc(O)cc2)NC1=O [Example 1123] ({CH2CO}-FYG[NMeY]NLYWC-NH2; thioether N-9) ) has IC50 equal to 126

Per the records, this molecule ( CC(C)C[C@@H]1NC(=O)CNC(=O)[C@H](Cc2ccccc2)N(C)C(=O)CNC(=O)[C@H](Cc2ccc(O)cc2)NC(=O)[C@H](Cc2ccccc2)NC(=O)CSC[C@@H](C(N)=O)NC(=O)[C@H](Cc2c[nH]c3ccccc23)NC(=O)[C@H](Cc2ccc(O)cc2)NC1=O [Example 1121] ({CH2CO}-FYG[NMeF]GLYWC-NH2; thioether N-9) ) has IC50 equal to 378

* * *

Molecular target: human ROR1 (Homo sapiens)
Construct: host or cells: HEK 293T cells, Tet-on system induced with doxycycline
Assay: ROR1 high content cell-based binding assay
Conditions: read-out: ROR1 Binding 293T Human HC Cell Based Assay IC50
Positions of bridges follow the written chain, without caps; N, C: chain ends. Non-standard residues stand in square brackets, D forms with d. Residues, ends and D or L forms follow the SMILES beside them. NMeF = CN[C@@H](Cc1ccccc1)C(=O)O; NMeA = CN[C@@H](C)C(=O)O; AEEA = NCCOCCOCC(=O)O; Sar = CNCC(=O)O
property: IC50
I'd appreciate it if you wrote the number followed by its unit.

Example entries and their recorded answers appear below.
Per the records, this compound ( CC(C)C[C@@H]1NC(=O)[C@H](Cc2ccc(O)cc2)NC(=O)[C@H](Cc2ccccc2)NC(=O)CSC[C@@H](C(=O)NCC(N)=O)NC(=O)[C@H](C)N(C)C(=O)[C@H](Cc2ccccc2)N(C)C(=O)[C@H](Cc2ccc(O)cc2)NC(=O)[C@H](Cc2c[nH]c3ccccc23)NC(=O)CNC(=O)[C@H](CO)NC(=O)[C@H](Cc2ccc(O)cc2)NC(=O)[C@H](C(C)C)NC1=O [Example 1064] ({CH2CO}-FYLVYSGWY[NMeF][NMeA]CG-NH2; thioether N-12) ) has IC50 equal to 199 nM

Per the records, this compound ( CC(C)C[C@@H]1NC(=O)[C@H](Cc2ccc(O)cc2)NC(=O)[C@H](C)N(C)C(=O)CSC[C@@H](C(=O)NCC(N)=O)NC(=O)[C@H](CC(C)C)NC(=O)[C@H](Cc2ccccc2)N(C)C(=O)[C@H](Cc2ccc(O)cc2)NC(=O)[C@H](Cc2c[nH]c3ccccc23)NC(=O)CNC(=O)[C@H](CO)NC(=O)[C@H](Cc2ccc(O)cc2)NC(=O)[C@H](C(C)C)NC1=O [Example 1063] ({CH2CO}-[NMeA]YLVYSGWY[NMeF]LCG-NH2; thioether N-12) ) has IC50 equal to 576 nM

Per the records, this compound ( CC(C)C[C@@H]1NC(=O)[C@H](Cc2ccc(O)cc2)NC(=O)[C@H](Cc2ccccc2)NC(=O)CSC[C@@H](C(=O)NCCOCCOCC(=O)O)NC(=O)[C@H](CC(C)C)NC(=O)[C@H](Cc2ccccc2)N(C)C(=O)[C@H](Cc2ccc(O)cc2)NC(=O)[C@H](Cc2c[nH]c3ccccc23)NC(=O)CNC(=O)[C@H](CO)NC(=O)[C@H](Cc2ccc(O)cc2)NC(=O)[C@H](C(C)C)NC1=O [Example 1090] ({CH2CO}-FYLVYSGWY[NMeF]LC[AEEA]-OH; thioether N-12) ) has IC50 equal to 67 nM

Per the records, this compound ( CC(C)C[C@@H]1NC(=O)CSC[C@@H](C(=O)NCC(N)=O)NC(=O)[C@H](CC(C)C)NC(=O)[C@H](Cc2ccccc2)N(C)C(=O)[C@H](Cc2ccc(O)cc2)NC(=O)[C@H](Cc2c[nH]c3ccccc23)NC(=O)CNC(=O)[C@H](CO)NC(=O)[C@H](Cc2ccc(O)cc2)NC(=O)[C@H](C(C)C)NC(=O)[C@H](CC(C)C)NC(=O)[C@H](Cc2ccc(O)cc2)NC1=O [Example 1072] ({CH2CO}-LYLVYSGWY[NMeF]LCG-NH2; thioether N-12) ) has IC50 equal to 80 nM

Per the records, this compound ( CC(C)C[C@@H]1NC(=O)[C@H](Cc2ccc(O)cc2)NC(=O)[C@H](Cc2ccccc2)NC(=O)CSC[C@@H](C(=O)NCC(N)=O)NC(=O)[C@H](CC(C)C)NC(=O)[C@H](Cc2ccccc2)N(C)C(=O)[C@H](Cc2ccc(O)cc2)NC(=O)[C@H](Cc2c[nH]c3ccccc23)NC(=O)CNC(=O)[C@H](CO)NC(=O)[C@H](Cc2ccc(O)cc2)NC(=O)[C@H](CO)NC1=O [Example 1069] ({CH2CO}-FYLSYSGWY[NMeF]LCG-NH2; thioether N-12) ) has IC50 equal to 82 nM

New cases:
Per the records, this compound ( CC(C)[C@@H]1NC(=O)CN(C)C(=O)[C@H](CCCNC(=N)N)NC(=O)[C@H](Cc2ccccc2)NC(=O)CSC[C@@H](C(N)=O)NC(=O)[C@H](C(C)C)NC(=O)[C@H](Cc2c[nH]c3ccccc23)NC(=O)[C@H](Cc2ccc(O)cc2)NC(=O)[C@H](Cc2c[nH]c3ccccc23)NC(=O)CNC(=O)[C@H](Cc2c[nH]c3ccccc23)NC(=O)[C@H](CCCNC(=N)N)NC1=O [Example 1097] ({CH2CO}-FR[Sar]VRWGWYWVC-NH2; thioether N-12) ) has IC50 equal to 63 nM

Per the records, this compound ( CC[C@H](C)[C@@H]1NC(=O)[C@H](Cc2ccccc2)NC(=O)CSC[C@@H](C(=O)NCC(=O)NCCOCCOCC(=O)N[C@@H](CCCCN)C(N)=O)NC(=O)[C@H](C)NC(=O)[C@H](Cc2ccccc2)NC(=O)[C@H](Cc2ccc(O)cc2)NC(=O)[C@H](Cc2c[nH]c3ccccc23)NC(=O)CNC(=O)[C@H](CCC(=O)O)NC(=O)[C@H](Cc2ccc(O)cc2)NC(=O)[C@H](C(C)C)NC(=O)[C@H](Cc2c[nH]c3ccccc23)NC1=O [Example 1081] ({CH2CO}-FIWVYEGWYFACG[AEEA]K-NH2; thioether N-12) ) has IC50 equal to 177 nM

Per the records, this compound ( CC(C)C[C@@H]1NC(=O)[C@H](Cc2ccccc2)N(C)C(=O)[C@H](Cc2ccc(O)cc2)NC(=O)[C@H](Cc2c[nH]c3ccccc23)NC(=O)CNC(=O)[C@H](CO)NC(=O)[C@H](Cc2ccc(O)cc2)NC(=O)[C@H](C(C)C)NC(=O)[C@H](C)NC(=O)[C@H](Cc2ccc(O)cc2)NC(=O)[C@H](Cc2ccccc2)NC(=O)CSC[C@@H](C(=O)NCC(N)=O)NC1=O [Example 1040] ({CH2CO}-FYAVYSGWY[NMeF]LCG-NH2; thioether N-12) ) has IC50 equal to 17 nM

Per the records, this compound ( CC(C)C[C@@H]1NC(=O)[C@H](Cc2ccc(O)cc2)NC(=O)[C@H](C)NC(=O)CSC[C@@H](C(=O)NCC(N)=O)NC(=O)[C@H](CC(C)C)NC(=O)[C@H](Cc2ccccc2)N(C)C(=O)[C@H](Cc2ccc(O)cc2)NC(=O)[C@H](Cc2c[nH]c3ccccc23)NC(=O)CNC(=O)[C@H](CO)NC(=O)[C@H](Cc2ccc(O)cc2)NC(=O)[C@H](C(C)C)NC1=O [Example 1037] ({CH2CO}-AYLVYSGWY[NMeF]LCG-NH2; thioether N-12) ) has IC50 equal to 251 nM
